Values were extracted from patent US10835542B2.

experimental protocol: Intra-pulmonary (ELF, AC/AM by BAL) and plasma PK after multiple iv doses in healthy adult subjects
Format: in vivo, human
condition info: human, epithelial lining fluid (ELF); 12 h after fifth 100 mg iv dose; read-out: ELF concentration (mean ± SD)
assay metric: concentration at 12 h (ng/mL)
Form entry: value (ng/mL) — number only.

Reported concentration at 12 h, compound CN(C)c1cc(CNCC(C)(C)C)c(O)c2c1C[C@H]1C[C@H]3[C@H](N(C)C)C(O)=C(C(N)=O)C(=O)[C@@]3(O)C(O)=C1C2=O : ____
610

----------
experimental protocol: Intra-pulmonary (ELF, AC/AM by BAL) and plasma PK after multiple iv doses in healthy adult subjects
Assay type: in vivo, human
condition info: human, epithelial lining fluid (ELF); 1 h after fifth 100 mg iv dose; read-out: ELF concentration (mean ± SD)
assay metric: concentration at 1 h (ng/mL)
Form entry: value (ng/mL) — number only.

Reported concentration at 1 h, compound CN(C)c1cc(CNCC(C)(C)C)c(O)c2c1C[C@H]1C[C@H]3[C@H](N(C)C)C(O)=C(C(N)=O)C(=O)[C@@]3(O)C(O)=C1C2=O [Compound 1] : ____
2250

----------
experimental protocol: Intra-pulmonary (ELF, AC/AM by BAL) and plasma PK after multiple iv doses in healthy adult subjects
Assay type: in vivo, human
condition info: human, epithelial lining fluid (ELF); 24 h after fifth 100 mg iv dose; read-out: ELF concentration (mean ± SD)
assay metric: concentration at 24 h (ng/mL)
Form entry: value (ng/mL) — number only.

Reported concentration at 24 h, compound CN(C)c1cc(CNCC(C)(C)C)c(O)c2c1C[C@H]1C[C@H]3[C@H](N(C)C)C(O)=C(C(N)=O)C(=O)[C@@]3(O)C(O)=C1C2=O : ____
410

----------
experimental protocol: Intra-pulmonary (ELF, AC/AM by BAL) and plasma PK after multiple iv doses in healthy adult subjects
Assay type: in vivo, human
condition info: human, epithelial lining fluid (ELF); 0.5 h after fifth 100 mg iv dose; read-out: ELF concentration (mean ± SD)
Description: Concomitant blood samples were taken to compare tissue with serum antibiotic concentrations. […] One standard bronchoscopy was performed for each subject. […] A blood sample was taken at the time of bronschoscopy for plasma urea measurement. […] All the biofluid concentrations were expressed in ng/mL. All concentrations below the limit of quantification (BLQ) or missing data were labeled as such in the concentration data listings. […]
assay metric: concentration at 0.5 h (ng/mL)
Form entry: value (ng/mL) — number only.

Reported concentration at 0.5 h, molecule CN(C)c1cc(CNCC(C)(C)C)c(O)c2c1C[C@H]1C[C@H]3[C@H](N(C)C)C(O)=C(C(N)=O)C(=O)[C@@]3(O)C(O)=C1C2=O : ____
1730

----------
experimental protocol: Intra-pulmonary (ELF, AC/AM by BAL) and plasma PK after multiple iv doses in healthy adult subjects
Type: in vivo, human
condition info: human, alveolar macrophages (AM); 8 h after fifth 100 mg iv dose; read-out: AM concentration (mean ± SD)
Protocol: Concomitant blood samples were taken to compare tissue with serum antibiotic concentrations. […] One standard bronchoscopy was performed for each subject. […] A blood sample was taken at the time of bronschoscopy for plasma urea measurement. […] All the biofluid concentrations were expressed in ng/mL. All concentrations below the limit of quantification (BLQ) or missing data were labeled as such in the concentration data listings. […]
assay metric: concentration at 8 h (ng/mL)
Form entry: value (ng/mL) — number only.

Reported concentration at 8 h, molecule CN(C)c1cc(CNCC(C)(C)C)c(O)c2c1C[C@H]1C[C@H]3[C@H](N(C)C)C(O)=C(C(N)=O)C(=O)[C@@]3(O)C(O)=C1C2=O : ____
12300
